Measured LIPASE, listed per entry.
- Species: Rattus norvegicus
- assayComment: DrugMatrix - Regimen: Daily Repeat
- Assay type: toxicity, organism-based, Sprague-Dawley
- Parameters: regimen Daily Repeat, gender Male, age 6-8 weeks
- conditionParameters: in vivo, po, 0 mg/kg, 120 h, tissue Plasma, route oral GAVAGE, dose level Control, time 5 day, […]
// note: answer is a bare numeric in u/L

Completed entries (count: 3):
• CC[C@H](C)C(=O)O[C@H]1C[C@@H](C)C=C2C=C[C@H](C)[C@H](CC[C@@H]3C[C@@H](O)CC(=O)O3)[C@H]21 = 11.67
• CCn1cc(C(=O)O)c(=O)c2cc(F)c(N3CCNCC3)nc21 = 6.83
• COc1ncnc(NS(=O)(=O)c2ccc(N)cc2)c1OC = 10.5

Problem: Give the measured LIPASE of CC(C)Cc1ccc(CC(=O)O)cc1 .
Result: 10.5

Problem: And what about the molecule NC[C@@H]1O[C@H](O[C@H]2[C@@H](O)[C@H](O[C@@H]3[C@@H](O)[C@H](N)C[C@H](N)[C@H]3O[C@H]3O[C@H](CN)[C@@H](O)[C@H](O)[C@H]3N)O[C@@H]2CO)[C@H](N)[C@@H](O)[C@@H]1O ?
Result: 85.83

Origin of measurements: ChEMBL document CHEMBL3885881
